Quick reference: Kd of the listed items.
target: HSA (Homo sapiens); construct: purchased HiMedia (Mumbai, India); assay: HSA tryptophan fluorescence quenching; format: binding; conditions: HSA, Scatchard equation; read-out: Binding constant Kbin (converted)
Sequence (P02768 25-609): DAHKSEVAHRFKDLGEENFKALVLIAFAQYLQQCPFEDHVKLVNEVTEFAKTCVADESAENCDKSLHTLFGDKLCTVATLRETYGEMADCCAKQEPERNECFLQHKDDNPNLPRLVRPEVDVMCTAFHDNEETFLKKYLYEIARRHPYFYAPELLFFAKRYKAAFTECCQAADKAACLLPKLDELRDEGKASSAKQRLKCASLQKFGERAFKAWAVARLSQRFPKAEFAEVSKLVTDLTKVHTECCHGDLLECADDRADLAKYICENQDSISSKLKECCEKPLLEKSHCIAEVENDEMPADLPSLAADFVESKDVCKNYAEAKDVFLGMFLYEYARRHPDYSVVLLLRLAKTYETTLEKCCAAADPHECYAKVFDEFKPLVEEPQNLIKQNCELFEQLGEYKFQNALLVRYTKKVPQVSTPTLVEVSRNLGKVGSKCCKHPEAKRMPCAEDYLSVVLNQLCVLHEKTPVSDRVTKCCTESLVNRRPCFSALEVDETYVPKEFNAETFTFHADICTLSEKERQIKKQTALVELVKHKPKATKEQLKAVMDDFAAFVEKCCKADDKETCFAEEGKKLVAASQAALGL
MEASURE: Kd (µM)

>>> result("COc1ccc2cc(/C(C)=N\\NC(=S)Nc3ccccc3)c(=O)oc2c1 [H2L^4]")
858
>>> result("CNC(=S)NN=C(C)c1cc2ccc(OC)cc2oc1=O [H2L^2]")
392
>>> result("COc1ccc2cc(C(C)=NNC(N)=S)c(=O)oc2c1 [H2L^1]")
477
>>> result("CCNC(=S)NN=C(C)c1cc2ccc(OC)cc2oc1=O [H2L^3]")
382
